FYI, the data here is from patent US6358694B1.

Biological target: cloned human FP receptor (Homo sapiens, UniProt P43088)
Construct: A long open reading frame (1077 bp) was determined which would result in a 359 amino acid polypeptide; expressed in transfected cells; host or cells: COS-M6 cells, transient DEAE-dextran transfection with pcDNAIamp-hFP; 100,000 x g membrane fraction
Sequence (P43088 whole entry): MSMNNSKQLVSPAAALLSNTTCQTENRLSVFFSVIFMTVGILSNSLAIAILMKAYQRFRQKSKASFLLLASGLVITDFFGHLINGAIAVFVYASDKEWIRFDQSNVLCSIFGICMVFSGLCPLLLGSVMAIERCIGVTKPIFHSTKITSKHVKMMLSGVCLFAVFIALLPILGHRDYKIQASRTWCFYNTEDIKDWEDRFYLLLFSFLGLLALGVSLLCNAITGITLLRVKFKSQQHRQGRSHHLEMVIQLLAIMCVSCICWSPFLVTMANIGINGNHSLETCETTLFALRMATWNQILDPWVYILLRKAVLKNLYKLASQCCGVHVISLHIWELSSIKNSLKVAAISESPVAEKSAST
Assay: [3H]PGF2α competition binding assay with membranes of pcDNAIamp-hFP transfected COS-M6 cells
Description: The recently cloned human prostaglandin F2a (FP) receptor was subcloned into the pcDNA lamp plasmid (Invitrogen) and transfected into COS-M6 cells using the DEAE-dextran method. The cells were maintained in culture for 72 h, then harvested and membranes prepared by differential centrifugation (1000×g for 10 min, then 100,000×g for 30 min) following lysis of the cells by nitrogen cavitation. […]
ENDPOINT LABEL: pIC50
Quick note: pIC50 means taking -log10 of the concentration in moles per liter.

Q: Any idea what pIC50 was measured for O=C(O)CCC/C=C\C[C@@H]1[C@@H](/C=C/[C@@H](O)COc2cccc(C(F)(F)F)c2)[C@H](O)C[C@@H]1O (racemic) [fluprostenol] ?
Ans: 8.46
